- experimentDescription: amyloid nucleation score (Sup35N fusion, yeast selection) (log enrichment); library NNK2; higher = more nucleation; inactive = no reads after selection;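 note: zero at mode of non-aggregating sequences after 7 days selection at 30°C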
quantity: amyloid nucleation score
# print the numeric value only

Annotate the substance `NTVWSFSSEWLFKQQLVCVR` with its measured amyloid nucleation score.
0.091

Annotate the substance `KFLKARFGYQST` with its measured amyloid nucleation score.
1.3

Annotate the substance `GLFLRSTP` with its measured amyloid nucleation score.
-0.402

Annotate the substance `EFWVLNYVITNLHWQTYSIM` with its measured amyloid nucleation score.
-1.29

Annotate the substance `RNSPSRKNL` with its measured amyloid nucleation score.
-0.415

Annotate the substance `HESVHTTHFMAFYC` with its measured amyloid nucleation score.
0.124

Annotate the substance `HNMPARKYINSLMTFHVRWP` with its measured amyloid nucleation score.
-0.321

Annotate the substance `CMEETMVSSLKLLTRPMTSR` with its measured amyloid nucleation score.
0.052

Annotate the substance `SILGMG` with its measured amyloid nucleation score.
-0.555

Annotate the substance `MLFSNVLLCKLCIFA` with its measured amyloid nucleation score.
6.96

Annotate the substance `VAYYLCAGTSGDTFGKANQS` with its measured amyloid nucleation score.
0.222

Annotate the substance `SSFNTDFACSWVGYMAVVSM` with its measured amyloid nucleation score.
-0.771

Annotate the substance `SLWKLGSLMSTFFEL` with its measured amyloid nucleation score.
-0.758

Annotate the substance `KWIRDIRDLQTH` with its measured amyloid nucleation score.
-0.275

Annotate the substance `VYRYIVIYPFVKWHKTDRFC` with its measured amyloid nucleation score.
-0.805

Annotate the substance `WVSVRKRHWTTHWLGVGVPN` with its measured amyloid nucleation score.
0.611

====

- experimentDescription: amyloid nucleation score (Sup35N fusion, yeast selection) (log enrichment); library NNK2; higher = more nucleation; inactive = no reads after selection
Lab note: compare amyloid nucleation score against -0.1. Equal or greater, write 1 (yes). Smaller, write 0 (no).

In plain terms: is recorded amyloid nucleation score at least -0.1 for `NHLMSMFDCSDTQMSSSSIA` ?
1 (yes)

In plain terms: is recorded amyloid nucleation score at least -0.1 for `SVLTLTSIIYLGSCKFLNFM` ?
1 (yes)

In plain terms: is recorded amyloid nucleation score at least -0.1 for `LTRMKT` ?
0 (no)

In plain terms: is recorded amyloid nucleation score at least -0.1 for `PDPLWGRPFYIWIMELGSRK` ?
1 (yes)

In plain terms: is recorded amyloid nucleation score at least -0.1 for `NYVYSTCYALDQCQFKYNVQ` ?
1 (yes)

In plain terms: is recorded amyloid nucleation score at least -0.1 for `SVFMFCVSEL` ?
1 (yes)

In plain terms: is recorded amyloid nucleation score at least -0.1 for `VHVRGACCHGCRARNVSGHP` ?
1 (yes)

In plain terms: is recorded amyloid nucleation score at least -0.1 for `FYLKFHRCGR` ?
1 (yes)

In plain terms: is recorded amyloid nucleation score at least -0.1 for `TGNVCQDEVNAIGRFP` ?
0 (no)

In plain terms: is recorded amyloid nucleation score at least -0.1 for `RQGFSVSSNRLGVFQSQEPG` ?
0 (no)

In plain terms: is recorded amyloid nucleation score at least -0.1 for `VGGFRGRVTSHSPMRMCIQR` ?
0 (no)

In plain terms: is recorded amyloid nucleation score at least -0.1 for `MIVVCVRLYQGRYGRMPDYE` ?
0 (no)

In plain terms: is recorded amyloid nucleation score at least -0.1 for `RLCAWEVNPARSKAGAV` ?
1 (yes)

In plain terms: is recorded amyloid nucleation score at least -0.1 for `TQNTTYNAYMNLKE` ?
0 (no)

In plain terms: is recorded amyloid nucleation score at least -0.1 for `VNIRGTHVLVRVYSQGRNRA` ?
1 (yes)

In plain terms: is recorded amyloid nucleation score at least -0.1 for `ALILECRVRSRS` ?
1 (yes)

====

- experimentDescription: amyloid nucleation score (Sup35N fusion, yeast selection) (log enrichment); library NNK1; higher = more nucleation; inactive = no reads after selection
quantity: amyloid nucleation score
# print the numeric value only

Annotate the sequence `YHCLWGFVGVLKSDSLRDRR` with its measured amyloid nucleation score.
0.602

Annotate the sequence `TQLSMWSVRIKISYWVSGGV` with its measured amyloid nucleation score.
0.804

Annotate the sequence `ICSWPNRRVAVPH` with its measured amyloid nucleation score.
-0.482

Annotate the sequence `RFLLLPAHPGPGVSMVYRYL` with its measured amyloid nucleation score.
0.077

Annotate the sequence `SVTHKTKCRLQFGVEMGQN` with its measured amyloid nucleation score.
1.13

Annotate the sequence `IMCPMWWLVLYNSSVQRYAE` with its measured amyloid nucleation score.
6.11

====

- experimentDescription: amyloid nucleation score (Sup35N fusion, yeast selection) (log enrichment); library NNK3; higher = more nucleation; inactive = no reads after selection
quantity: amyloid nucleation score

For orientation, consider the following solved cases.
Annotate the substance `SLYYSTCIK` with its measured amyloid nucleation score.
inactive

Annotate the substance `FVVKYNWRYDLLIPYQMDLI` with its measured amyloid nucleation score.
inactive

Annotate the substance `TWCGFWTLMERVYHRRWTSL` with its measured amyloid nucleation score.
inactive

Annotate the substance `YMTGLD` with its measured amyloid nucleation score.
inactive

Annotate the substance `CADGSSFRETPSNFTHPNIL` with its measured amyloid nucleation score.
inactive

***
Annotate the substance `LLLTYFMMGYYVVWYVFGYW` with its measured amyloid nucleation score.
inactive

Annotate the substance `YIVLAPCWCHIGSIDLAVPH` with its measured amyloid nucleation score.
3.01

Annotate the substance `VGPLSDSVFMYGT` with its measured amyloid nucleation score.
inactive

Annotate the substance `GYFSLPIGGVVRTGVMLDE` with its measured amyloid nucleation score.
inactive

Annotate the substance `NRKGIR` with its measured amyloid nucleation score.
-0.009

====

Hi there, I'd appreciate the recorded amyloid nucleation score for every entry that follows.
- experimentDescription: amyloid nucleation score (Sup35N fusion, yeast selection) (log enrichment); library NNK2; higher = more nucleation; inactive = no reads after selection
# print the numeric value only

Annotate the substance `YSMICGLHCSVLFRGNSEGT` with its measured amyloid nucleation score.
4.78

Annotate the substance `FNIVQHVASCGWLTYTWSAA` with its measured amyloid nucleation score.
-0.018

Annotate the substance `FRKWNSS` with its measured amyloid nucleation score.
4.08

Annotate the substance `FLRFLVCLG` with its measured amyloid nucleation score.
-0.22

Annotate the substance `SEKGKEYSSVDMGQNGNTNM` with its measured amyloid nucleation score.
-0.829

Annotate the substance `CLVINSIKVFYARVGTSYKF` with its measured amyloid nucleation score.
2.01

Annotate the substance `SLHMFLVIFSYLLVANRGKS` with its measured amyloid nucleation score.
0.246

Annotate the substance `PCSWPNPHLRIGFRLKSPPP` with its measured amyloid nucleation score.
4.34

Annotate the substance `GCVGAVRRLEGSIVYEDRTL` with its measured amyloid nucleation score.
0.944

Annotate the substance `VDMPTSQFVTSTTLGTLVTM` with its measured amyloid nucleation score.
2.32

Annotate the substance `WLLNLERDIFLLTLSGRMIK` with its measured amyloid nucleation score.
0.449

Annotate the substance `FIAFVYNL` with its measured amyloid nucleation score.
1.95

Annotate the substance `NGVSMESRFQFSDWWNPTYY` with its measured amyloid nucleation score.
-0.847

Annotate the substance `ARNTDNPMSNGPYIWIGPY` with its measured amyloid nucleation score.
1.21

Annotate the substance `MSLSLQKYFLWRPGRAPVVR` with its measured amyloid nucleation score.
-0.03

Annotate the substance `PPVLLISKSSFMQLGCSLST` with its measured amyloid nucleation score.
-0.587

Annotate the substance `RFFVYWFVFLCRLNGCVLWT` with its measured amyloid nucleation score.
-0.689

Annotate the substance `SRRGDRSRWCEMVMDVKVCS` with its measured amyloid nucleation score.
5.21

Annotate the substance `RNYVIFTSEAKVAADIPLYL` with its measured amyloid nucleation score.
2.45

Annotate the substance `GWSYTEVYFMIASCYII` with its measured amyloid nucleation score.
1.16

Annotate the substance `HYGNSWY` with its measured amyloid nucleation score.
0.958

Annotate the substance `RWMRTSAGGCGSKVVWNLLG` with its measured amyloid nucleation score.
0.682

Annotate the substance `YGFDLKSGQSADASCASVSG` with its measured amyloid nucleation score.
0.586

Annotate the substance `NRSREELYARNKQYFSFI` with its measured amyloid nucleation score.
-0.986

Annotate the substance `RVMRCGCIDVQAILNVIVSQ` with its measured amyloid nucleation score.
9.32

Annotate the substance `IVCIWNTDVLIGKWTHLSWS` with its measured amyloid nucleation score.
0.883

Annotate the substance `VGVVVNFRASGPGFE` with its measured amyloid nucleation score.
8.29

Annotate the substance `QEMYALACHVLTCCNLRNKR` with its measured amyloid nucleation score.
9.87

====

- experimentDescription: amyloid nucleation score (Sup35N fusion, yeast selection) (log enrichment); library NNK3; higher = more nucleation; inactive = no reads after selection
quantity: amyloid nucleation score

For orientation, consider the following solved cases.
Annotate the substance `SRIIVRN` with its measured amyloid nucleation score.
inactive

Annotate the substance `SGNNMRLHTTGLVASNGLGS` with its measured amyloid nucleation score.
inactive

Annotate the substance `AGHYLLSPGYQMMLERSNRS` with its measured amyloid nucleation score.
inactive

Annotate the substance `RRFRSLKRPAQNLSDALMSG` with its measured amyloid nucleation score.
inactive

Annotate the substance `RCLCDPGYCCIFISENWIL` with its measured amyloid nucleation score.
1.74

***
Annotate the substance `RWFQRWEIKTNAHLLTTLNM` with its measured amyloid nucleation score.
inactive

Annotate the substance `SCGLFRLNMDIRVSNKNFWG` with its measured amyloid nucleation score.
0.991
